Origin of the recorded values: ChEMBL document CHEMBL4823320

# Study Target: Genome polyprotein (dengue virus type 2)
# Experiment: Inhibition of DENV2 NS2B-NS3 protease expressed in Escherichia coli BL21(DE3) using Boc-Gly-Arg-Arg-AMC as substrate at 200 uM by FRET assay
Activity calls are given as the source filed them. No cut-off for these calls is given here.
Attribute Measured: inhibition

{"columns": ["Smiles Code", "Result"],
 "data": [
  ["O=C(Nc1ccccc1)c1cc2ccc(O)cc2o1", "inactive"],
  ["O=C(Nc1ccccc1)c1cc2cc([N+](=O)[O-])c(O)cc2o1", "19%"],
  ["Nc1cc2cc(C(=O)Nc3ccccc3)oc2cc1O", "34%"],
  ["O=C(Nc1ccccc1)c1cc2cc(O)ccc2o1", "inactive"]
]}
